- protocol.text: BSK_CASM3C_Proliferation: Cell Proliferation Assessment in the BioMAP Diversity Plus: CASM3C Assay (AID 2283047);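 also: sulforhodamine B total protein stain as relative cell number at 560 nm; sub-confluent cells exposed 48 h before staining; fitted both ways against DMSO so gain or loss of cell number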
- experimental.setup: primary human coronary artery smooth muscle cells
Calls of active or inactive are those of the source. The calls were made as follows: active = hit-call score of the fitted dose curve at least 0.9, where 1 is the maximum; inactive = score below 0.9.
observation.type: AC50

Record excerpt, results attached:
1) COC(=O)c1ccc(CNS(C)(=O)=O)cc1S(=O)(=O)NC(=O)Nc1nc(OC)cc(OC)n1
inactive
2) CCOC(=O)NCCOc1ccc(Oc2ccccc2)cc1
7.68 µM (active)
3) CC(=O)[C@H]1CC[C@H]2[C@@H]3CCC4=CC(=O)CC[C@]4(C)[C@H]3CC[C@]12C
12.7 µM (active)
4) CCCCC(CC)CN1C(=O)C2C3C=CC(C3)C2C1=O (stereo not given)
inactive

Asked: Value lookup for AC50; key = CCOC(=O)COc1cc(-n2ncc(C(F)(F)F)c(C)c2=O)c(F)cc1Cl
Given back: inactive
